Test system: MX-1 breast xenograft, nude mice, tumor weight T/C
Assay: NCI In Vivo Anticancer Drug Screen. Data for tumor model Human Mammary Carcinoma MX-1 Xenograft (intrarenal inoculation) in NU/NU Swiss (nude) mice
Conditions: endpoint: mean tumor weight change; dose: 200.0 mg/kg/injection; schedule: Q04DX003 (sc); vehicle: Klucel (hydroxypropylcellulose) (HPC); higher = larger tumour
Records with an inconclusive call do not appear.
MEASUREMENT_TYPE: T/C

Recall and state the measured T/C for O=[N+]([O-])c1ccc(-n2[nH]nnc2=S)cc1 .
158 % of control

Recall and state the measured T/C for Cc1ccc(NCC2(/N=C/c3ccccc3)OC(CO)C(O)C2O)cc1 (stereo not given) .
109 % of control

Recall and state the measured T/C for O=C1CC2(C(=O)N1CN1CCCCC1)c1ccccc1-c1ccccc12 .
79 % of control

Recall and state the measured T/C for O=c1[nH]cnc2n[nH]nc12 .
27 % of control

Recall and state the measured T/C for CC(=O)NC(CCc1ccc(Cl)c(Cl)c1)c1cccc(O)c(=O)c1 (stereo not given) .
90 % of control

Recall and state the measured T/C for CSc1nc(=O)[nH]nc1SCc1ccccc1 .
100 % of control

Recall and state the measured T/C for O=Cc1ccccc1 .
96 % of control

Recall and state the measured T/C for Ic1ncnc2c1ncn2C1CCCO1 (stereo not given) .
97 % of control

Recall and state the measured T/C for COCC1OC2OC3C(COC)OC(OC4C(COC)OC(OC5C(COC)OC(OC6C(COC)OC(OC7C(COC)OC(OC8C(COC)OC(OC1C(O)C2O)C(O)C8O)C(O)C7O)C(O)C6O)C(O)C5O)C(O)C4O)C(O)C3O (stereo not given) (tested in a mixture with another compound) .
96 % of control

Recall and state the measured T/C for O=S(=O)(SC(S(=O)(=O)c1ccccc1)S(=O)(=O)c1ccccc1)c1ccccc1 .
42 % of control

###

Test system: MX-1 breast xenograft, nude mice, tumor weight T/C
Test: NCI In Vivo Anticancer Drug Screen. Data for tumor model Human Mammary Carcinoma MX-1 Xenograft (intrarenal inoculation) in NU/NU Swiss (nude) mice
Settings: endpoint: mean tumor weight change; dose: 1.5 mg/kg/injection; schedule: Q04DX003 (sc); vehicle: saline; higher = larger tumour
Records with an inconclusive call do not appear.
MEASUREMENT_TYPE: T/C

Enter recorded T/C with MX-1 breast xenograft, nude mice, tumor weight T/C for CO[C@H](C(=O)[C@@H](O)[C@@H](C)O)[C@@H]1Cc2cc3cc(OC4CC(OC5CC(O)C(O)C(C)O5)C(O)C(C)O4)c(C)c(O)c3c(O)c2C(=O)[C@H]1OC1CC(OC2CC(OC3CC(C)(O)C(O)C(C)O3)C(O)C(C)O2)C(O)C(C)O1 (some centres undefined) here.
26 % of control

Enter recorded T/C with MX-1 breast xenograft, nude mice, tumor weight T/C for COC1C(O)CC(OC2CC(OC3CC(O[C@@H]4C(=O)c5c(cc6cc(OC7CC(OC8CC(O)C(O)C(C)O8)C(O)C(C)O7)c(C)c(O)c6c5O)C[C@H]4[C@H](OC)C(=O)[C@@H](O)[C@@H](C)O)OC(C)C3O)OC(C)C2O)OC1C (some centres undefined) here.
61 % of control

Enter recorded T/C with MX-1 breast xenograft, nude mice, tumor weight T/C for O=C1C(NCCO)=C(N2CC2)C(=O)C(NCCO)=C1N1CC1 here.
37 % of control

Enter recorded T/C with MX-1 breast xenograft, nude mice, tumor weight T/C for NC(=O)c1cn(C2OC(CO)C(O)C2O)c2ncnc(N)c12 (centres undefined) here.
77 % of control

###

Answer each item with its documented T/C.
Tested on: MX-1 breast xenograft, nude mice, tumor weight T/C
Test: NCI In Vivo Anticancer Drug Screen. Data for tumor model Human Mammary Carcinoma MX-1 Xenograft (intrarenal inoculation) in NU/NU Swiss (nude) mice
Conditions: endpoint: mean tumor weight change; dose: 200.0 mg/kg/injection; schedule: Q01DX010 (sc); vehicle: saline with Tween-80; higher = larger tumour
Results filed as inconclusive are left out.

Enter recorded T/C with MX-1 breast xenograft, nude mice, tumor weight T/C for CCOC(C)C(/C=N/NC(N)=S)=NNC(N)=S (configuration not stated) here.
123 % of control

Enter recorded T/C with MX-1 breast xenograft, nude mice, tumor weight T/C for O=C1N(Cl)C(=O)C(c2ccc(Cl)cc2)(c2ccc(Cl)cc2)N1Cl here.
65 % of control

Enter recorded T/C with MX-1 breast xenograft, nude mice, tumor weight T/C for CCOC(=O)c1ccc(NC(=O)Nc2nncs2)cc1 here.
62 % of control

Enter recorded T/C with MX-1 breast xenograft, nude mice, tumor weight T/C for COc1ccc2cc1Oc1ccc(cc1)C[C@H]1c3cc(c(OC)cc3CCN1C)Oc1c(OC)c(OC)cc3c1[C@H](C2)N(C)CC3 here.
42 % of control

Enter recorded T/C with MX-1 breast xenograft, nude mice, tumor weight T/C for CCO/C=C1\SC(=S)N(c2ccccc2C)C1=O here.
90 % of control

Enter recorded T/C with MX-1 breast xenograft, nude mice, tumor weight T/C for S=C=NCCc1ccccc1 here.
113 % of control

Enter recorded T/C with MX-1 breast xenograft, nude mice, tumor weight T/C for C1OC1CO[C@@H]1CO[C@H]2[C@@H]1OC[C@H]2OCC1CO1 (some centres not stated) here.
24 % of control

Enter recorded T/C with MX-1 breast xenograft, nude mice, tumor weight T/C for c1ccc2sc(SSN3CC4CCC(CC4)C3)nc2c1 here.
156 % of control

Enter recorded T/C with MX-1 breast xenograft, nude mice, tumor weight T/C for CCCCc1ccc2nc(NC(=O)OC)[nH]c2c1 here.
109 % of control

Enter recorded T/C with MX-1 breast xenograft, nude mice, tumor weight T/C for CCOC(=O)c1ccc(NC(=O)Nc2nccs2)cc1 here.
63 % of control

Enter recorded T/C with MX-1 breast xenograft, nude mice, tumor weight T/C for CCCC(=O)Oc1ccc(/C=N/NC(N)=S)nc1 here.
113 % of control

Enter recorded T/C with MX-1 breast xenograft, nude mice, tumor weight T/C for CC1(C)CC1(Br)Br here.
153 % of control

###

System: MX-1 breast xenograft, nude mice, tumor weight T/C
Test: NCI In Vivo Anticancer Drug Screen. Data for tumor model Human Mammary Carcinoma MX-1 Xenograft (intrarenal inoculation) in NU/NU Swiss (nude) mice
Conditions: endpoint: mean tumor weight change; dose: 300.0 mg/kg/injection; schedule: Q04DX003 (sc); vehicle: saline with Tween-80; higher = larger tumour
Inconclusive results are not listed.
Answer each item with its documented T/C.

Recall and state the measured T/C for O=C1SC(c2ccccc2)=S=C1c1ccccc1 .
102 % of control

Recall and state the measured T/C for COC(=O)C(Cl)(Cl)N=Nc1c(Cl)cc(Cl)c(C)c1Cl .
78 % of control

Recall and state the measured T/C for CCCCCCC(=O)CC(SCC)c1ccccc1Cl (configuration not stated) .
75 % of control

Recall and state the measured T/C for FC(F)(F)c1nc2nc(Cl)c(Cl)nc2[nH]1 .
90 % of control

Recall and state the measured T/C for COc1ccc(C(=O)c2no[n+]([O-])c2C(=O)c2ccc(OC)cc2)cc1 .
121 % of control

Recall and state the measured T/C for Cn1c2ccccc2c2ccc3c(c21)C(=O)C=CC3=O .
117 % of control

Recall and state the measured T/C for CO[C@@H]1[C@H](O)CC[C@]2(CO2)[C@H]1[C@@]1(C)O[C@@H]1CC=C(C)C .
79 % of control

Recall and state the measured T/C for N#CC(=C1C=CC(=NO)C=C1)c1ccc(Cl)cc1 .
122 % of control

Recall and state the measured T/C for CS(=O)(=O)Nc1ccc(C(=O)CCN2CCCCCC2)cc1 .
70 % of control

Recall and state the measured T/C for ClCc1ccc2ccccc2n1 .
98 % of control

Recall and state the measured T/C for COc1ccc([I+]c2cccc(Cl)c2)cc1Cl .
100 % of control

Recall and state the measured T/C for NC(=S)N/N=C/c1ccc(OC(=O)COc2ccc(Cl)cc2)cn1 .
112 % of control

###

Test system: MX-1 breast xenograft, nude mice, tumor weight T/C
Test: NCI In Vivo Anticancer Drug Screen. Data for tumor model Human Mammary Carcinoma MX-1 Xenograft (intrarenal inoculation) in NU/NU Swiss (nude) mice
Settings: endpoint: mean tumor weight change; dose: 300.0 mg/kg/injection; schedule: Q04DX003 (sc); vehicle: saline with Tween-80; higher = larger tumour
Method: The antitumor activity of compounds was measured in mice bearing transplantable tumors. Survival or tumor size were measured and the results are expressed as the measurement made in the treated group (T) divided by the measurement made in the vehicle treated control group (C). The tumor model used in this assay is Human Mammary Carcinoma MX-1 Xenograft (intrarenal inoculation) in NU/NU Swiss (nude) mice
Inconclusive results are not listed.
MEASUREMENT_TYPE: T/C

Recall and state the measured T/C for O/N=C/c1ccccc1O.O/N=C/c1ccccc1O.[Cu] .
81 % of control

Recall and state the measured T/C for CNc1cccnc1/C=N/NC(N)=S .
114 % of control

Recall and state the measured T/C for O=C1NC(=O)/C(=C/C=C/c2ccccc2)S1 .
111 % of control

Recall and state the measured T/C for O=S1(=O)C=C(c2ccccc2)C(c2ccccc2)=C1 .
80 % of control

Recall and state the measured T/C for Brc1ccc(C[N+]23CN4CN(CN(C4)C2)C3)cc1 .
89 % of control

Recall and state the measured T/C for CCCCCCCCCCCCSC1=C(Cl)C(=O)C(OC)=C(OC)C1=O .
47 % of control

Recall and state the measured T/C for CC1=C(/C=C/C(C)=C/C=C/C(C)=C/C=O)C(C)(C)CCC1 .
98 % of control

Recall and state the measured T/C for O=C(c1cccnc1)c1cc(-c2ccccn2)c(=O)n2ccccc12 .
66 % of control
